Where these numbers come from: ChEMBL document CHEMBL3885861

# KIDNEY_R per record follows
Species on record: Rattus norvegicus
Assay: Open TG-GATES - Regimen: Single
Type: toxicity, organism-based, Sprague-Dawley
Set-up: regimen Single, gender Male, age 6 weeks
Conditions: in vivo, po, 100 mg/kg, 9 h, tissue Kidney, route gavage, dose level Low
Remember to quote the unit after the number.

COC(=O)C1=C(C)NC(C)=C(C(=O)OC)C1c1ccccc1[N+](=O)[O-] ... 0.9 g

Below: the item to evaluate.
// returns reported KIDNEY_R for input O=C(OC[C@H]1O[C@@H](OC(=O)c2cc(O)c(O)c(OC(=O)c3cc(O)c(O)c(O)c3)c2)[C@H](OC(=O)c2cc(O)c(O)c(OC(=O)c3cc(O)c(O)c(O)c3)c2)[C@@H](OC(=O)c2cc(O)c(O)c(OC(=O)c3cc(O)c(O)c(O)c3)c2)[C@@H]1OC(=O)c1cc(O)c(O)c(OC(=O)c2cc(O)c(O)c(O)c2)c1)c1cc(O)c(O)c(OC(=O)c2cc(O)c(O)c(O)c2)c1
0.8 g
